- Test system: extract of E. coli (S30)
- assay info: Cell-free transcription-translation inhibition in E. coli S30 extract
- Assay type: biochemical
- reported conditions: inhibition of translation in active cell lysate, luciferase reporter, 60 min at 37 °C
metric name: IC50

Consider the following illustrative entries.
COc1ccc(C[C@H]2NC[C@H](O)[C@H]2O)cc1 [Analog 2]: > 1000 µM
NC[C@@H]1O[C@H](O[C@H]2[C@@H](O)[C@H](O[C@@H]3[C@@H](O)[C@H](N)C[C@H](N)[C@H]3O[C@H]3O[C@H](CO)[C@@H](O)[C@H](O)[C@H]3N)O[C@@H]2CO)[C@H](N)[C@@H](O)[C@@H]1O [Paromomycin, reference compound]: 0.051 µM
COc1ccc(C[C@H]2NC[C@H](O)[C@H]2OC)cc1 [Analog 11]: > 1000 µM
COc1ccc(C[C@H]2NC[C@H](OC)[C@H]2OC)cc1 [Analog 10]: > 1000 µM

Alright, here's another molecule for you.
## Task Read off the recorded IC50 for CC(=O)O[C@@H]1[C@@H](O)CN[C@@H]1Cc1cc(CN2CCOCC2)c(O)c(CN2CCOCC2)c1 [Analog 20]
## Result > 1000 µM

* * *

- Tested on: Leishmania infantum (MHOM/MA/67/ITMAP-263) resistant to 2 mM trivalent (and pentavalent) antimonials
- assay info: Anti-leishmanial activity on promastigotes, antimony-resistant L. infantum
- Type: cell-based
- reported conditions: Leishmania infantum, 72 h, read-out: IC50 (μM) Ldi Sb-Res
metric name: IC50

Previously resolved entries follow.
CCCCCCCCOc1ccc(C[C@H]2NC[C@H](O)[C@H]2OC(C)=O)cc1 [Analog 22b]: 1.75 µM
CCCCCCCCCCCCCCCCOP(=O)([O-])OCC[N+](C)(C)C [Miltefosine, reference compound]: 8.21 µM

API: the following record is the query input.
## Task In one line, give reported IC50 of the entry CC(=O)O[C@@H]1[C@@H](O)CN[C@@H]1Cc1ccc(OCC(=O)O)cc1 [Analog 22d] .
## Result 16 µM

* * *

- Tested on: Leishmania major Friedlin
- assay info: Anti-leishmanial activity on promastigotes, L. major Friedlin
- Format: cell-based
- reported conditions: Leishmania major, 72 h, 25 °C, read-out: IC50 (μM) LmF WT
metric name: IC50 (µM)
Numbers only, in µM.

CC(=O)O[C@@H]1[C@@H](O)CN[C@@H]1Cc1ccc(OCC(=O)O)cc1 [Analog 22d]: 16.6

State recorded IC50 for all listed compounds.
1. CCCCCCCCCCCCCCCCOP(=O)([O-])OCC[N+](C)(C)C [Miltefosine, reference compound]
2. CCCCCCCCOc1ccc(C[C@H]2NC[C@H](O)[C@H]2OC(C)=O)cc1 [Analog 22b]

## Result
[8.47, 1.75]

* * *

- System: extract of E. coli (S30)
- assay info: Cell-free transcription-translation inhibition in E. coli S30 extract
- Assay type: biochemical
- reported conditions: inhibition of translation in active cell lysate, luciferase reporter, 60 min at 37 °C
Assign IC50 to each entry below.

CC(=O)O[C@@H]1[C@@H](O)CN[C@@H]1Cc1ccc(OC(C)C)cc1 [Analog 22a]: > 200 µM
COc1ccc(C[C@@H]2[C@H](OC(C)=O)[C@@H](O)CN2C)cc1 [Analog 8]: > 1000 µM

Give IC50 for each of the items listed below.
1. CC(=O)O[C@@H]1[C@@H](O)CN[C@@H]1Cc1cc(CN(C)C)c(O)c(CN(C)C)c1 [Analog 19]
2. COc1ccc(C[C@H]2NC[C@H](O)[C@H]2OC(C)=O)cc1 [Analog 1, Anisomycin]
3. COc1ccc(C[C@H]2NC[C@H](OC(C)=O)[C@H]2OC(C)=O)cc1 [Analog 9]
4. CCCCCCCCOc1ccc(C[C@H]2NC[C@H](O)[C@H]2OC(C)=O)cc1 [Analog 22b]
5. CC(=O)O[C@@H]1[C@@H](O)CN[C@@H]1Cc1ccc(OCc2ccccc2)cc1 [Analog 22c]
6. CC(=O)O[C@@H]1[C@@H](O)CN[C@@H]1Cc1ccc(O)cc1 [Analog 17]

## Result
1. > 200 µM
2. > 500 µM
3. > 1000 µM
4. > 200 µM
5. > 200 µM
6. > 200 µM

## Task Given COc1ccc(C[C@H]2NC[C@H](O)[C@H]2OC(C)=O)cc1I [Analog 16] , respond with its IC50.
## Result > 1000 µM

* * *

- Test system: L. infantum WT amastigotes in BMDM
- assay info: Drug susceptibility of intracellular amastigotes in infected BMDM, L. infantum
- Format: cell-based
- reported conditions: Leishmania infantum; infected BMDM macrophages, 48 h; read-out: EC50 against amastigotes of L. infantum
metric name: pEC50
One number for each entry, as −log10 of the molar value.

## Task Write down the reported pEC50 (system: L. infantum WT amastigotes in BMDM) of CC(=O)O[C@@H]1[C@@H](O)CN[C@@H]1Cc1ccc(OC(C)C)cc1 [Analog 22a]
## Result 7.48

* * *

- Tested on: Leishmania infantum (MHOM/MA/67/ITMAP-263) wild-type strain
- assay info: Anti-leishmanial activity on promastigotes, L. infantum WT
- Format: cell-based
- reported conditions: Leishmania infantum, 72 h, 25 °C, read-out: IC50 (μM) Ldi WT
metric name: IC50 (µM)
One number for each entry, in µM.

In the examples that follow, each entry is paired with its recorded IC50.
CCCCCCCCCCCCCCCCOP(=O)([O-])OCC[N+](C)(C)C [Miltefosine, reference compound]: 7.16
CC(=O)O[C@@H]1[C@@H](O)CN[C@@H]1Cc1ccc(OCC(=O)O)cc1 [Analog 22d]: 14.9

Then there is this compound:
## Task Provide measured IC50 value, entry: CCCCCCCCOc1ccc(C[C@H]2NC[C@H](O)[C@H]2OC(C)=O)cc1 [Analog 22b]
## Result 1.11

This collection of values is drawn from paper PMC10526209.
